From: ChEMBL document CHEMBL4619772

Test system: A549
Test: Inhibition of pseudotyped HIV/EBOV GP infected in human A549 cells assessed as reduction in virus entry at 12.5 uM measured after 48 hrs by luciferase reporter gene assay relative to control
Format: cell-based
Details: Ebolavirus
Below is a list of entries, each paired with its recorded inhibition value.
// units = %; emit number, no label

Use the examples below as a reference point.
# CHEMICAL SMILES, TESTED TARGET, MEASUREMENT
measured = [
    ("CNS(=O)(=O)c1ccc(NC(=O)c2ccc(CN3CCCCC3)cc2)cc1", "A549", 0),
    ("O=C(Nc1cccc(C(F)(F)F)c1)c1ccc(CN2CCCCC2)cc1", "A549", 82.2),
]

IN: Need inhibition of `O=C(Nc1ccc(C(F)(F)F)cc1)c1ccc(CN2CCCCC2)cc1` , thanks.
OUT: 89.9

IN: Same thing, different molecule: `CC(C)c1ccc(NC(=O)c2ccc(CN3CCCCC3)cc2)cc1`
OUT: 93.1

IN: Same thing, different molecule: `O=C(c1ccc(CN2CCCCC2)cc1)n1ccc2ccc(C(F)(F)F)cc21`
OUT: 0

###

Below is a list of entries, each paired with its recorded remaining at 1 h, 20 µM value.
Assay: Metabolic stability in human pooled plasma assessed as parent compound remaining at 20 uM after 60 mins by HPLC analysis
Format: ADME, cell-free
Conditions: read-out: Stability
// units = %; emit number, no label

Use the examples below as a reference point.
# MOLECULE, MEASUREMENT
measured = [
    ("CC(c1ccc(C(=O)Nc2ccc(C3CCCCC3)cc2)cc1)N1CCCCC1 (stereo unspecified)", 88),
    ("CC(c1ccc(C(=O)N2CC(C(C)(C)C)c3ccccc32)cc1)N1CCCCC1 (stereo unspecified)", 88),
    ("CC1CCN(c2ccc(NC(=O)c3ccc(CN4CCOCC4)cc3)cc2C(F)(F)F)CC1", 100),
    ("CC(c1ccc(C(=O)N2CCc3cc(C(C)(C)C)ccc32)cc1)N1CCCCC1 (stereo unspecified)", 94),
    ("O=C(Nc1ccc(C2CCCCC2)cc1)c1ccc(CN2CCCCC2)c(F)c1", 87),
]

# next molecule below
IN: Need remaining at 1 h, 20 µM of `O=C(c1ccc(CN2CCCCC2)cc1)N1CCc2ccc(C(F)(F)F)cc21` , thanks.
OUT: 85

###

Assay: Selectivity index, ratio of CC50 for human HeLa cells to EC50 for Ebola virus 1976 Mayinga in human HeLa cells
Format: toxicity, cell-based
Details: read-out: Ratio CC50/EC50
METRIC NAME: selectivity ratio
Just the number, please, no unit attached.

Use the examples below as a reference point.
# COMPOUND, selectivity ratio
records = [
    ("O=C(c1ccc(CN2CCCCC2)cc1)N1CCc2ccc(C(F)(F)F)cc21", 39),
    ("O=C(Nc1ccc(C23CC4CC(CC(C4)C2)C3)cc1)c1ccc(CN2CCCCC2)cc1", 202),
    ("CC(c1ccc(C(=O)N2CCc3cc(C(C)(C)C)ccc32)cc1)N1CCCCC1 (stereo not given)", 19),
]

IN: Need selectivity ratio of `CC1CCN(c2ccc(NC(=O)c3ccc(CN4CCOCC4)cc3)cc2C(F)(F)F)CC1` , thanks.
OUT: 58

IN: Same thing, different compound: `O=C(Nc1ccc(C2CCCCC2)cc1)c1ccc(CN2CCCCC2)c(F)c1`
OUT: 128

###

Below is a list of entries, each paired with its recorded remaining at 1 h, 20 µM value.
Assay: Metabolic stability in Sprague-Dawley rat pooled plasma assessed as parent compound remaining at 20 uM after 60 mins by HPLC analysis
Type: ADME, cell-free
Conditions: read-out: Stability
Please make sure the unit comes right after the number.

Use the examples below as a reference point.
# COMPOUND, MEASUREMENT
rows = [
    ("CC(c1ccc(C(=O)N2CC(C(C)(C)C)c3ccccc32)cc1)N1CCCCC1 (stereo unspecified)", "2%"),
    ("CC(C)(C)c1ccc(NC(=O)c2ccc(CN3CCCCC3)cc2)c(C(C)(C)C)c1", "82%"),
    ("CC(c1ccc(C(=O)N2CCc3cc(C(C)(C)C)ccc32)cc1)N1CCCCC1 (stereo unspecified)", "62%"),
    ("O=C(Nc1ccc(C23CC4CC(CC(C4)C2)C3)cc1)c1ccc(CN2CCOCC2)cc1", "86%"),
    ("COC(=O)c1ccc(NC(=O)c2ccc(CN3CCCCC3)cc2)cc1", "78%"),
]

IN: Need remaining at 1 h, 20 µM of `O=C(Nc1ccc(SC(F)(F)F)c(Cl)c1)c1ccc(CN2CCCCC2)cc1` , thanks.
OUT: 88%

IN: Same thing, different compound: `O=C(c1ccc(CN2CCCCC2)cc1)N1CCc2ccc(C(F)(F)F)cc21`
OUT: 0%

###

Assay: Selectivity index, ratio of CC50 for human A549 cells to EC50 for HIV/EBOV-GP infected in human A549 cells
Type: toxicity, cell-based
Settings: read-out: Ratio CC50/EC50
METRIC NAME: selectivity ratio
Just the number, please, no unit attached.

Use the examples below as a reference point.
# COMPOUND, selectivity ratio
rows = [
    ("CC(c1ccc(C(=O)N2CCc3cc(C(C)(C)C)ccc32)cc1)N1CCCCC1 (stereo not given)", 9),
    ("CC1(C)CN(C(=O)c2ccc(CN3CCCCC3)cc2)c2ccccc21", 33),
    ("COC(=O)c1ccc(NC(=O)c2ccc(CN3CCCCC3)cc2)cc1", 15),
    ("N#CC(c1ccc(NC(=O)c2ccc(CN3CCCCC3)cc2)cc1)C1CCCC1 (stereo not given)", 99),
]

# next compound below
IN: Need selectivity ratio of `O=C(Nc1cccc(C(F)(F)F)c1)c1ccc(CN2CCCCC2)cc1` , thanks.
OUT: 15

###

Experiment: Selectivity index, ratio of CC50 for human HeLa cells to EC50 for Ebola virus 1976 Mayinga in human HeLa cells
Format: toxicity, cell-based
Settings: read-out: Ratio CC50/EC50
METRIC NAME: selectivity ratio
Just the number, please, no unit attached.

# COMPOUND, selectivity ratio
data = [
    ("O=C(Nc1ccc(SC(F)(F)F)c(Cl)c1)c1ccc(CN2CCCCC2)cc1", 14),
]

# next compound below
IN: Need selectivity ratio of `O=C(Nc1ccc(C23CC4CC(CC(C4)C2)C3)cc1)c1ccc(CN2CCOCC2)cc1` , thanks.
OUT: 134

###

System: A549
Experiment: Inhibition of pseudotyped HIV/EBOV GP infected in human A549 cells assessed as reduction in virus entry at 12.5 uM measured after 48 hrs by luciferase reporter gene assay relative to control
Assay type: cell-based
Conditions: Ebolavirus
METRIC NAME: inhibition
Please make sure the unit comes right after the number.

Use the examples below as a reference point.
# COMPOUND, inhibition
data = [
    ("O=C(Nc1ccc(C2CC2)cc1)c1ccc(CN2CCCCC2)cc1", "74.3%"),
    ("O=C(Nc1ccc(C23CC4CC(CC(C4)C2)C3)cc1)c1ccc(CN2CCOCC2)cc1", "99%"),
    ("O=C(O)c1ccc(NC(=O)c2ccc(CN3CCCCC3)cc2)cc1", "3.12%"),
]

IN: Need inhibition of `O=C(NCC1CCC(F)(F)CC1)c1ccc(CN2CCCCC2)cc1` , thanks.
OUT: 42.9%

IN: Same thing, different compound: `CC1(C)CN(C(=O)c2ccc(CN3CCCCC3)cc2)c2ccccc21`
OUT: 87.3%

IN: Same thing, different compound: `COC(=O)c1ccc(NC(=O)c2cccc(CN3CCCCC3)c2)cc1`
OUT: 13%

IN: Same thing, different compound: `O=C(Nc1ccc(C2CCCCC2)cc1)c1ccc(CN2CCCCC2)c(F)c1`
OUT: 96.1%

IN: Same thing, different compound: `COC(=O)c1ccc2c(c1)CCN2C(=O)c1ccc(CN2CCCCC2)s1`
OUT: 38.9%

IN: Same thing, different compound: `O=C(Nc1ccc(C(F)(F)F)c(Cl)c1)c1ccc(CN2CCCCC2)cc1`
OUT: 99.7%

IN: Same thing, different compound: N#CC(c1ccc(NC(=O)c2ccc(CN3CCCCC3)cc2)cc1)C1CCCC1 (stereo unspecified)
OUT: 96.8%

IN: Same thing, different compound: CC(c1ccc(C(=O)N2CC(C(C)(C)C)c3ccccc32)cc1)N1CCCCC1 (stereo unspecified)
OUT: 99.9%

###

System: A549
Test: Inhibition of pseudotyped HIV/EBOV GP infected in human A549 cells assessed as reduction in virus entry at 12.5 uM measured after 48 hrs by luciferase reporter gene assay relative to control
Type: cell-based
Settings: Ebolavirus
Everything with inhibition lower than 50% is label 0; everything else, including exactly 50%, is label 1.

# MOLECULE, DISCRETE LABEL
rows = [
    ("O=C(Nc1ccc(Cl)c(C(F)(F)F)c1)c1ccc(CN2CCCCC2)cc1", "label 1"),
    ("COC(=O)c1ccc(NC(=O)c2ccc(CN3CCN(C)CC3)cc2)cc1", "label 0"),
    ("O=C(Nc1ccc(SC(F)(F)F)c(Cl)c1)c1ccc(CN2CCCCC2)cc1", "label 1"),
    ("COC(=O)c1ccc(NC(=O)c2ccc(C(=O)N3CCCCC3)cc2)cc1", "label 0"),
    ("CC(c1ccc(C(=O)N2CCc3ccc(C(F)(F)F)cc32)cc1)N1CCCCC1 (centres undefined)", "label 1"),
]

IN: Is it the case that CC(c1ccc(C(=O)NCC2COC3(CCCCC3)O2)cc1)N1CCCCC1 (centres undefined) has inhibition reaching or exceeding 50%?
OUT: label 1

IN: Same thing, different molecule: `CS(=O)(=O)Nc1ccc(NC(=O)c2ccc(CN3CCCCC3)cc2)cc1`
OUT: label 0

IN: Same thing, different molecule: CC(c1ccc(C(=O)N2CCc3cc(C(C)(C)C)ccc32)cc1)N1CCCCC1 (centres undefined)
OUT: label 1

IN: Same thing, different molecule: CC(c1ccc(C(=O)Nc2ccc(C3CCCCC3)cc2)cc1)N1CCCCC1 (centres undefined)
OUT: label 1

IN: Same thing, different molecule: CC(c1ccc(C(=O)NCCOC2CCCCC2)cc1)N1CCCCC1 (centres undefined)
OUT: label 1

IN: Same thing, different molecule: `COC(=O)c1ccc2c(c1)CCCN2C(=O)c1ccc(CN2CCCCC2)cc1`
OUT: label 0

IN: Same thing, different molecule: `CC(C)(C)c1ccc(NC(=O)c2ccc(CN3CCCCC3)cc2)c(C(C)(C)C)c1`
OUT: label 1

IN: Same thing, different molecule: `COC(=O)c1ccc(NC(=O)c2ccc(CN3CCCCC3)cc2)cc1`
OUT: label 1

IN: Same thing, different molecule: `CS(=O)(=O)c1ccc(NC(=O)c2ccc(CN3CCCCC3)cc2)cc1`
OUT: label 0
